TEST_TARGET: human c-Met (HGFR), full length, on the cell surface (human, UniProt P08581 25-1390)
Sequence (P08581 25-1390 limits assumed): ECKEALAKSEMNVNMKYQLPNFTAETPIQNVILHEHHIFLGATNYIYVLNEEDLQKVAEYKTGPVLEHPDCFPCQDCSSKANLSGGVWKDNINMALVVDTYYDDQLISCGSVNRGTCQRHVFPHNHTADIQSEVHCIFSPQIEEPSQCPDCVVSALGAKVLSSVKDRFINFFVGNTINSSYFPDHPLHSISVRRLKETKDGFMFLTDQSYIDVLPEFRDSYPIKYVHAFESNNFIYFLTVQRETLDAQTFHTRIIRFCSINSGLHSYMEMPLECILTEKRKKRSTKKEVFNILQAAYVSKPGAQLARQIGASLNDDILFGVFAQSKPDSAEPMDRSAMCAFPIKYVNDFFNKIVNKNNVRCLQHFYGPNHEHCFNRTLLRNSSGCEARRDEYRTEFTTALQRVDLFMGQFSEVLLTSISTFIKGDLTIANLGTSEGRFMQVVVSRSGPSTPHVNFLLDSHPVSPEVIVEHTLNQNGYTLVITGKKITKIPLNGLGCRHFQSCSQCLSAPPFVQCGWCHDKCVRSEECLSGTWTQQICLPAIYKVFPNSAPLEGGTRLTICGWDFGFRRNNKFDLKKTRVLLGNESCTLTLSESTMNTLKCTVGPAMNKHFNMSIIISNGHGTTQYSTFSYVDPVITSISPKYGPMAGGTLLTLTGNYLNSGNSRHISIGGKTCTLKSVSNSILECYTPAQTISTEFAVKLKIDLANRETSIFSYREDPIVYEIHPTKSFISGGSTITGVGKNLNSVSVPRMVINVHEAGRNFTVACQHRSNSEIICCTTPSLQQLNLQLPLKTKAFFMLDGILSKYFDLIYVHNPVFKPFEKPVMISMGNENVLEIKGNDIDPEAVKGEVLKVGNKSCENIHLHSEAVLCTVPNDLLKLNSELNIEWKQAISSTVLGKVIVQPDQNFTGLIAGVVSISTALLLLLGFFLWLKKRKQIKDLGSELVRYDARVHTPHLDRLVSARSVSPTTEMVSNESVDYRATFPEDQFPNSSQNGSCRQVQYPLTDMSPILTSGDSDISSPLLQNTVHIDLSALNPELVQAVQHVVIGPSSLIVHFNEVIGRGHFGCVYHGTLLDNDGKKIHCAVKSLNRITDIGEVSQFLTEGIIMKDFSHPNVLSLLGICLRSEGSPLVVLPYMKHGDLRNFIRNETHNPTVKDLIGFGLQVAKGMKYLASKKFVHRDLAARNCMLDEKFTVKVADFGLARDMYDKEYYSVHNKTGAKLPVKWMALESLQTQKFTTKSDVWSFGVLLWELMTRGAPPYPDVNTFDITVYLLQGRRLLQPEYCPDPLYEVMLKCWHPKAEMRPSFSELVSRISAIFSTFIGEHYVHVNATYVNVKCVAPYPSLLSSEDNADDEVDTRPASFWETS
PROTOCOL_DETAILS: cell-based or functional assay
MEASUREMENT_LABEL: Efficacy (%), in vitro cytotoxicity, MKN-45, -HGF
Report the value in % with no unit label.

Would you mind telling me what Efficacy (%), in vitro cytotoxicity, MKN-45, -HGF value was observed for ADC2b (antibody, human IgG1, kappa, V domains shown, vc-seco-DUBA linker-drug on the engineered cysteine at HC position 41 (Kabat); DAR 1.7) VH: QVQLVQSGAEVKKPGSSVKVSCKASGYVFPDYEMHWVRQACGQGLEWMGAFDPETGDTTYNQNFKGRVTITADKSTSTAYMELSSLRSEDTAVYYCARDYKYLYYYAMDNWGQGTTVTVSS VL: DIQMTQSPSSLSASVGDRVTITCTASSSITSSYLHWYQQKPGKAPKLLIYSTTNLASGVPSRFSGSGSGTDFTLTISSLQPEDFATYYCHQYRRSPLTFGGGTKLEIKR ?
84

Attention now turns to another entry.
Would you mind telling me what Efficacy (%), in vitro cytotoxicity, MKN-45, -HGF value was observed for ADC3d (antibody, human IgG1, kappa, V domains shown, vc-seco-DUBA linker-drug on the engineered cysteine at HC position 41 (Kabat); DAR 1.8) VH: QVQLQESGAEVKKPGASVKVSCKASGYTFTDYYLNWVRQACGQGLEWMGLIFPGNDKTEYSEKFKGRVTMTRDTSTSTVYMELSSLRSEDTAVYYCSGGDYGGFVYWGQGTLVTVSS VL: DIQLTQSPSSLSASVGDRVTITCGASENIYGALNWYQQKPGKAPKLLIYGATNLADGVPSRFSGSGSGTDFTLTISSLQPEDFATYYCQNVLSSPLTFGPGTKVDIKR ?
82
